Target: Peroxisome proliferator-activated receptor gamma (Homo sapiens)
Assay: qHTS assay to identify small molecule antagonists of the peroxisome proliferator-activated receptor gamma (PPARg) signaling pathway (AID 743191); further: nearly all actives have a fitted effect of over 30% in size
Settings: HEK293H PPARg-UAS-bla, beta-lactamase ratio, antagonist, 17 h; series mostly up to 62.6 µM
Text: U.S. Tox21 Program National Center for Advancing Translational Sciences [NCATS] NIH Chemical Genomics Center [NCGC] U.S. Environmental Protection Agency [EPA] National Institutes of Environmental Health Sciences [NIEHS] National Toxicology Program [NTP] U.S. Food and Drug Administration [FDA] […]
Results filed as inconclusive are left out. Calls of active or inactive are those of the source. The call rests on the fitted dose curve.
Form entry, call: pick from 1 = active, -1 = inactive

Ask: Please state the recorded outcome for this compound: "ClCCCCBr"
Reply: -1

Ask: Please state the recorded outcome for this compound: CC1(C)CCC(Cc2ccc(Cl)cc2)C1(O)Cn1cncn1 (centres undefined)
Reply: 1

Ask: Please state the recorded outcome for this compound: "COP(=S)(OC)Oc1cc(Cl)c(I)cc1Cl"
Reply: 1

Ask: Please state the recorded outcome for this compound: CC(=O)NC1CCSC1=O (centres undefined)
Reply: -1

Ask: Please state the recorded outcome for this compound: "ClCc1cccc(Cl)c1"
Reply: -1

Ask: Please state the recorded outcome for this compound: "O=C(CBr)c1ccccc1"
Reply: -1

Ask: Please state the recorded outcome for this compound: "NNC(=O)c1cccnc1"
Reply: -1

Ask: Please state the recorded outcome for this compound: "COc1c(C(C)(C)C)cc([N+](=O)[O-])c(C)c1[N+](=O)[O-]"
Reply: -1

Ask: Please state the recorded outcome for this compound: "CO/C=C(/C(=O)OC)c1ccccc1COc1cccc(C(F)(F)F)n1"
Reply: 1

Ask: Please state the recorded outcome for this compound: "CC(c1ccc(O)cc1)(c1ccc(O)cc1)c1ccc(O)cc1"
Reply: 1

Ask: Please state the recorded outcome for this compound: "C=CCC1([C@H](C)CCC)C(=O)NC(=O)NC1=O"
Reply: -1

Ask: Please state the recorded outcome for this compound: CNP(=O)(OC)Oc1ccc(C(C)(C)C)cc1Cl (centres undefined)
Reply: 1

Ask: Please state the recorded outcome for this compound: "CC(C)(Cl)[N+](=O)[O-]"
Reply: -1

Ask: Please state the recorded outcome for this compound: Cn1cc[n+](C)c1 (tested in a mixture with another compound)
Reply: -1

###

Molecular target: Acetylcholinesterase (Homo sapiens)
Experiment: Acetylcholinesterase (AChE) small molecule antagonists: fluorescence cell-based qHTS assay (AID 1347398); further: nearly all actives have a fitted effect of over 50% in size
Details: SH-SY5Y cells; AChE activity; series mostly up to 115 µM
Inconclusive results are not listed. Active and inactive are the calls of the source. Calls come from the whole dose curve.
readout_kind: outcome

Use the examples below as a reference point.
>  <compound>
COc1nn(CSP(=S)(OC)OC)c(=O)s1

>  <endpoint_value>
inactive

$$$$
>  <compound>
CCOc1nc(F)cc2nc(S(=O)(=O)Nc3c(Cl)cccc3Cl)nn12

>  <endpoint_value>
inactive

$$$$
>  <compound>
Clc1cccc(SC2CCNCC2)n1

>  <endpoint_value>
inactive

$$$$
>  <compound>
ClCC(Br)CBr (centres undefined)

>  <endpoint_value>
inactive

$$$$
>  <compound>
CCOP(=S)(Oc1ccc([N+](=O)[O-])cc1)c1ccccc1 (centres undefined)

>  <endpoint_value>
inactive

$$$$

Acetylcholinesterase (Homo sapiens) data for "O=Cc1ccc2c(c1)OCO2" ; its outcome: inactive

Acetylcholinesterase (Homo sapiens) data for "ClCc1cccc(Cl)c1" ; its outcome: inactive

Acetylcholinesterase (Homo sapiens) data for "C(=NC1CCCCC1)=NC1CCCCC1" ; its outcome: inactive

Acetylcholinesterase (Homo sapiens) data for "O=C(C(Cl)(Cl)Cl)C(Cl)(Cl)Cl" ; its outcome: inactive

Acetylcholinesterase (Homo sapiens) data for "O=C(O)C(F)(F)C(F)(F)C(F)(F)C(F)(F)C(F)(F)C(F)(F)C(F)(F)C(F)(F)C(F)(F)F" ; its outcome: inactive

Acetylcholinesterase (Homo sapiens) data for BrCC(Br)C1CCC(Br)C(Br)C1 (centres undefined) ; its outcome: inactive

Acetylcholinesterase (Homo sapiens) data for "COC(=O)C(Cl)C(=O)OC" ; its outcome: inactive

Acetylcholinesterase (Homo sapiens) data for "NNC(=O)c1cccnc1" ; its outcome: inactive

Acetylcholinesterase (Homo sapiens) data for "Nc1ccc([N+](=O)[O-])cc1[N+](=O)[O-]" ; its outcome: inactive

###

Target: Cytochrome P450 1A2 (Homo sapiens) (UniProt P05177)
Sequence (P05177 whole entry, looked up): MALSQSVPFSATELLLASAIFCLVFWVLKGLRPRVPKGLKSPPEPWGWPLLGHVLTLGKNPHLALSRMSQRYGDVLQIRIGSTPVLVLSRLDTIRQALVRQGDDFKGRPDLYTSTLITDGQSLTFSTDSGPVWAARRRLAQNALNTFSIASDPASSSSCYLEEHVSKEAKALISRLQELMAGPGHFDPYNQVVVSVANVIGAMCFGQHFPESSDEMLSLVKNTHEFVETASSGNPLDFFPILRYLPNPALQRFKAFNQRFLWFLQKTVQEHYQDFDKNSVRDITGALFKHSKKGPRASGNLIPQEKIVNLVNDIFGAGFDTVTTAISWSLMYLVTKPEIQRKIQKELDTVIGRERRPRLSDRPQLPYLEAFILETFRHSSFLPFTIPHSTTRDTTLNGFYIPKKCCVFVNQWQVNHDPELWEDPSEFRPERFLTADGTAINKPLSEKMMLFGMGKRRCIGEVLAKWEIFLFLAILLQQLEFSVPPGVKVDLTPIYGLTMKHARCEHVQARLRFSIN
Assay: Cytochrome P450 Family 1 Subfamily A Member 2 (CYP1A2) small molecule antagonists: luciferase reporter qHTS assay (AID 1671199); further: nearly all actives have a fitted effect of over 50% in size; further: potency means the concentration at half of the fitted maximal effect
Conditions: P450-Glo CYP1A2 enzyme, luciferin luminescence, 1 h; series mostly up to 115 µM
Results filed as inconclusive are left out. The source made the active and inactive calls. Calls follow the shape of the dose curve; as a rule, active = well fitted inhibition curve with a large enough effect in the repeat runs; inconclusive = weak or mixed curves; inactive = no such curve, though single readings can be large or run the other way.
readout_kind: Potency

>  <compound>
O=C(CBr)Nc1ccc(Cl)cc1C(=O)c1ccccc1F

>  <endpoint_value>
13.8 µM (active)

$$$$
>  <compound>
O=C(CBr)OCc1ccccc1

>  <endpoint_value>
inactive

$$$$
>  <compound>
ClCc1cccc(Cl)c1

>  <endpoint_value>
inactive

$$$$
>  <compound>
CC(Cl)C(C)Cl (centres undefined)

>  <endpoint_value>
inactive

$$$$

The value of Potency measured for the compound "Clc1cc(C(Cl)(Cl)Cl)cnc1Cl" turned out to be 7.96 µM (active)

The value of Potency measured for the compound "IC(I)=C(I)I" turned out to be 10 µM (active)

The value of Potency measured for the compound "COC(C)(C)CCC[C@H](C)C/C=C/C(C)=C/C(=O)OC(C)C" turned out to be 35.6 µM (active)

The value of Potency measured for the compound CCC(COC(=O)c1cc(OC)c(OC)c(OC)c1)(c1ccccc1)N(C)C (centres undefined) turned out to be inactive

The value of Potency measured for the compound "O=[N+]([O-])c1ccc(F)c([N+](=O)[O-])c1" turned out to be inactive

The value of Potency measured for the compound "CCOC(=O)CBr" turned out to be 63.6 µM (active)

The value of Potency measured for the compound "O=Cc1ccc(Cl)cc1Cl" turned out to be inactive

The value of Potency measured for the compound COc1cc(CC(C)N)cc2c1OCO2 (centres undefined) turned out to be 74.1 µM (active)

The value of Potency measured for the compound "CCCCCCCCCC(=O)O[C@H]1CC[C@H]2[C@@H]3CCC4=CC(=O)CC[C@@H]4[C@H]3CC[C@]12C" turned out to be inactive

The value of Potency measured for the compound "Cc1ccccc1CCl" turned out to be inactive

The value of Potency measured for the compound "CCOc1nc(F)cc2nc(S(=O)(=O)Nc3c(Cl)cccc3Cl)nn12" turned out to be inactive

The value of Potency measured for the compound "CCOP(=S)(OCC)SCSCC" turned out to be 22.4 µM (active)

The value of Potency measured for the compound "ClCc1ccccc1" turned out to be inactive

The value of Potency measured for the compound "CN1C[C@H](CNC(=O)OCc2ccccc2)C[C@@H]2c3cccc4c3c(cn4C)C[C@H]21" turned out to be inactive

The value of Potency measured for the compound O=C(O)CC(Cl)C(=O)O (centres undefined) turned out to be inactive

The value of Potency measured for the compound "ClCCCCBr" turned out to be inactive

The value of Potency measured for the compound "CCCCCCCCOC(=O)c1ccc(C(=O)OCCCCCCCC)c(C(=O)OCCCCCCCC)c1" turned out to be inactive

The value of Potency measured for the compound "N#CCC#N" turned out to be inactive

The value of Potency measured for the compound "CCOP(=O)(OCC)SCCSCC" turned out to be 34 µM (active)

###

Test: qHTS assay to identify small molecule antagonists of the estrogen receptor alpha (ER-alpha) signaling pathway using the BG1 cell line - cell viability counter screen (AID 743081);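 further: compound given together with 17beta-estradiol as the ER stimulus; nearly all actives have a fitted effect of over 45% in size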
Settings: BG1Luc4E2 viability, CellTiter-Fluor, 22 h; series mostly up to 70.3 µM
Results filed as inconclusive are left out. The source made the active and inactive calls. The call rests on the fitted dose curve; in most records, active means well fitted cell-killing curve with a large enough effect in the repeat runs; inconclusive means weak or mixed curves, or effect the other way; inactive means flat fitted curve, though single readings scatter.
Form entry, call: pick from T for active, F for inactive

Ask: Please state the recorded outcome for this molecule: "CC(C)(Cl)[N+](=O)[O-]"
Reply: F

Ask: Please state the recorded outcome for this molecule: "Clc1cccc2ccccc12"
Reply: F

Ask: Please state the recorded outcome for this molecule: "C=CC(C)=O"
Reply: F

Ask: Please state the recorded outcome for this molecule: "C[N+](C)(C)CCCl"
Reply: F

Ask: Please state the recorded outcome for this molecule: "CCOc1nc(F)cc2nc(S(=O)(=O)Nc3c(Cl)cccc3Cl)nn12"
Reply: F

Ask: Please state the recorded outcome for this molecule: CC(C)N(CCC(C(N)=O)(c1ccccc1)c1ccccn1)C(C)C (stereo not drawn)
Reply: F

Ask: Please state the recorded outcome for this molecule: "CCC(Br)(CC)C(=O)NC(N)=O"
Reply: F

Ask: Please state the recorded outcome for this molecule: "COc1nn(C(=O)NS(=O)(=O)c2ccccc2OC(F)(F)F)c(=O)n1C"
Reply: F

Ask: Please state the recorded outcome for this molecule: CC1(C)CCC(Cc2ccc(Cl)cc2)C1(O)Cn1cncn1 (stereo not drawn)
Reply: F

Ask: Please state the recorded outcome for this molecule: "CC(C)(OO)c1ccccc1"
Reply: F

Ask: Please state the recorded outcome for this molecule: "ClCCCCBr"
Reply: F

Ask: Please state the recorded outcome for this molecule: CC(Cl)C(C)Cl (stereo not drawn)
Reply: F

Ask: Please state the recorded outcome for this molecule: "CCCCCC[N+](=O)[O-]"
Reply: F

Ask: Please state the recorded outcome for this molecule: CC/C(=N\OC/C=C/Cl)C1=C(O)CC(C2CCOCC2)CC1=O (stereo not drawn)
Reply: F

Ask: Please state the recorded outcome for this molecule: "O=C(C(Cl)(Cl)Cl)C(Cl)(Cl)Cl"
Reply: F

Ask: Please state the recorded outcome for this molecule: "O=C(Nc1ccccc1)Nc1cnns1"
Reply: F

Ask: Please state the recorded outcome for this molecule: "CCCCCCCCCCOC(=O)c1ccccc1C(=O)OCCCCCCCCCC"
Reply: F

Ask: Please state the recorded outcome for this molecule: "COC(N)=O"
Reply: F

Ask: Please state the recorded outcome for this molecule: "Cc1ccc2ccccc2c1"
Reply: F

Ask: Please state the recorded outcome for this molecule: CCCCC(CC)COP(=O)(Oc1ccccc1)Oc1ccccc1 (stereo not drawn)
Reply: F

Ask: Please state the recorded outcome for this molecule: "O=C(NC(=O)c1c(F)cccc1F)Nc1cc(Cl)c(Oc2ncc(C(F)(F)F)cc2Cl)c(Cl)c1"
Reply: F

Ask: Please state the recorded outcome for this molecule: O=C(NC(=O)c1c(F)cccc1F)Nc1ccc(OC(F)(F)C(F)OC(F)(F)F)c(Cl)c1 (stereo not drawn)
Reply: F

Ask: Please state the recorded outcome for this molecule: "N#Cc1ccc(Cl)cc1"
Reply: F

Ask: Please state the recorded outcome for this molecule: "O=C(O)COc1ccc(Cl)cc1"
Reply: F

Ask: Please state the recorded outcome for this molecule: CCC(C)(NC(=O)c1cc(Cl)c(C)c(Cl)c1)C(=O)CCl (stereo not drawn)
Reply: F

Ask: Please state the recorded outcome for this molecule: "CCCN(CCC)c1c([N+](=O)[O-])cc(S(C)(=O)=O)cc1[N+](=O)[O-]"
Reply: F

Ask: Please state the recorded outcome for this molecule: "CCCCN(N=O)C(=N)N[N+](=O)[O-]"
Reply: F

Ask: Please state the recorded outcome for this molecule: "CC(=O)[C@H]1CC[C@H]2[C@@H]3CC[C@H]4C[C@](C)(O)CC[C@]4(C)[C@H]3CC[C@]12C"
Reply: F

Ask: Please state the recorded outcome for this molecule: "COc1cc(Cl)c(OC)cc1Cl"
Reply: F

Ask: Please state the recorded outcome for this molecule: "ClC=C(Cl)Cl"
Reply: F

Ask: Please state the recorded outcome for this molecule: "C=CC(=O)OCCCCO"
Reply: F

Ask: Please state the recorded outcome for this molecule: "N#C/C(N)=C(/N)C#N"
Reply: F

Ask: Please state the recorded outcome for this molecule: "CC(C)O.CC(C)O.OCCN(CCO)CCO.OCCN(CCO)CCO.[Ti]"
Reply: F

Ask: Please state the recorded outcome for this molecule: "O=C(Nc1ccccc1)Nc1ccnc(Cl)c1"
Reply: F

Ask: Please state the recorded outcome for this molecule: "c1ccc(CN2CCNCC2)cc1"
Reply: F

Ask: Please state the recorded outcome for this molecule: "C=CCC1([C@H](C)CCC)C(=O)NC(=O)NC1=O"
Reply: F

Ask: Please state the recorded outcome for this molecule: "COc1nn(CSP(=S)(OC)OC)c(=O)s1"
Reply: F

Ask: Please state the recorded outcome for this molecule: "O=C(O)c1ccccc1C(=O)Nc1cccc2ccccc12"
Reply: F

Ask: Please state the recorded outcome for this molecule: "Cl/C=C\Cl"
Reply: F

Ask: Please state the recorded outcome for this molecule: "O=[N+]([O-])c1ccccc1CCl"
Reply: F

Ask: Please state the recorded outcome for this molecule: "Cn1sc(Cl)cc1=O"
Reply: F

Ask: Please state the recorded outcome for this molecule: "C=CCN1CC[C@]23c4c5ccc(O)c4O[C@H]2C(=O)CC[C@@]3(O)[C@H]1C5"
Reply: F

Ask: Please state the recorded outcome for this molecule: "O=C(O)C(F)(F)C(F)(F)C(F)(F)C(F)(F)C(F)(F)C(F)(F)C(F)(F)C(F)(F)C(F)(F)F"
Reply: F

Ask: Please state the recorded outcome for this molecule: "CC(C)(C)c1cc([N+](=O)[O-])cc([N+](=O)[O-])c1O"
Reply: T

Ask: Please state the recorded outcome for this molecule: "CCCCCCC#N"
Reply: F

Ask: Please state the recorded outcome for this molecule: "CCOP(=O)(OCC)SCCSCC"
Reply: F

Ask: Please state the recorded outcome for this molecule: "Clc1cc(Cl)c(Cl)c(Cl)c1"
Reply: F

Ask: Please state the recorded outcome for this molecule: "Clc1cc(C(Cl)(Cl)Cl)cnc1Cl"
Reply: F

Ask: Please state the recorded outcome for this molecule: "O=NN1CCCCCC1"
Reply: F

Ask: Please state the recorded outcome for this molecule: "C=C(C#N)CCC#N"
Reply: F

Ask: Please state the recorded outcome for this molecule: "C=COC(C)=O"
Reply: F

Ask: Please state the recorded outcome for this molecule: "C#CCOC(C(=O)OCCN(C)C)(c1ccccc1)c1ccccc1"
Reply: F

Ask: Please state the recorded outcome for this molecule: "c1ccoc1"
Reply: F

Ask: Please state the recorded outcome for this molecule: "Brc1ccccc1"
Reply: F

Ask: Please state the recorded outcome for this molecule: O=C(O)CC(Cl)C(=O)O (stereo not drawn)
Reply: F

Ask: Please state the recorded outcome for this molecule: "CCn1cc[n+](C)c1"
Reply: F

Ask: Please state the recorded outcome for this molecule: "C[C@@H]1CC[C@H]2[C@@H](C)C(=O)O[C@@H]3O[C@@]4(C)CC[C@@H]1[C@]32OO4"
Reply: F

Ask: Please state the recorded outcome for this molecule: "CC(=O)CCC(C)=O"
Reply: F
